// IC50 collected for BRD2 (His-Brd2(60-472)) (Homo sapiens (Human))
A number alone suffices; assume nM.

Query: Could you share which IC50 value was measured for COc1ccc(-n2nc(C)c3c2C(c2ccc(Cl)cc2)N(c2cc(C)c(=O)n(C)c2)C3=O)cn1 (stereo not shown) [Example 20b] ?
Response: 49

Query: Could you share which IC50 value was measured for COc1ccc(-n2nc3c(c2C)C(=O)N(c2cc(C)c(=O)n(C)c2)C3c2ccc(Cl)cc2)cn1 (stereo not shown) [Example 20a] ?
Response: 61

Query: Could you share which IC50 value was measured for Cc1cc(N2C(=O)c3c(C4CC4)nn(C)c3C2c2ccc(Cl)cc2)cn(C)c1=O (stereo not shown) ?
Response: 32

Query: Could you share which IC50 value was measured for COc1ncc(-n2nc(C)c3c2C(c2ccc(Cl)cc2)N(c2cc(Cl)c(=O)n(C)c2)C3=O)cn1 (stereo not shown) ?
Response: 120

Query: Could you share which IC50 value was measured for COc1ncccc1-n1nc2c(c1C)C(=O)N(c1cc(C)c(=O)n(C)c1)C2c1ccc(Cl)cc1 (stereo not shown) [Example 17b] ?
Response: 53

Query: Could you share which IC50 value was measured for COc1ncccc1-n1nc2c(c1C)C(=O)N(c1cc(Cl)c(=O)n(C)c1)C2c1ccc(Cl)cc1 (stereo not shown) ?
Response: 32

Query: Could you share which IC50 value was measured for `COc1ncccc1-n1nc2c(c1C)C(=O)N(c1cc(C)c(=O)n(C)c1)[C@@H]2c1ccc(Cl)cc1` ?
Response: 110
